Each recorded value in this set is attributed to PubChem BioAssay.

target: Follistatin (Homo sapiens); assay: follistatin binders on small-molecule microarrays, primary screen, biochemical, small-molecule microarray, 635/667 nm fluorescence (AID 1132); details: FST binding, 635 nm fluorescence, higher = more signal
Returns one of met or not met; met when composite z-score is >= 0.8.

- molecule: "C[C@@]1([C@@H](NS(=O)(=O)c2cccc3cccnc23)c2ccc(-c3ccccc3)cc2)C[C@H]1C1CCCCC1"
  group: "not met"
- molecule: "O=C1NC(=O)C2C1C=CC(C(O)c1ccc(F)cc1)N2Nc1ccc(Cl)cc1Cl (stereo unspecified)"
  group: "not met"
- molecule: "O=C1O[C@H](c2ccccc2)[C@H](c2ccccc2)N2[C@H]1[C@@H](C(=O)Nc1nc3ccccc3s1)[C@]1(C(=O)Nc3ccccc31)[C@H]2c1ccccc1OCCO"
  group: "not met"
- molecule: "COc1ccc([Si](C)(C)[C@H]2[C@H](CC(=O)N3CCC[C@H]3CO)O[C@@]3(C(=O)N(C)c4ccccc43)[C@@H]2C)cc1"
  group: "met"
- molecule: "COCCOC(=O)N1C(=O)[C@@]2(c3cc(C#CCNC(N)=O)ccc31)[C@H](C(N)=O)[C@H]1C(=O)O[C@H](c3ccccc3)[C@H](c3ccccc3)N1[C@@H]2c1ccc(O)cc1"
  group: "met"
- molecule: "COCCCNC(=O)[C@]1(Cc2ccccc2CN=[N+]=[N-])N=C(c2ccc(OCCCO)cc2)O[C@@H]1c1ccccc1N=[N+]=[N-]"
  group: "not met"
- molecule: "O=C1c2ccccc2[C@@]2(Cc3ccccc3N(CC(F)(F)F)C2=O)[C@H](c2ccc(CO)cc2)N1Cc1ccccc1"
  group: "met"
- molecule: "COc1ccc([Si](C)(C)[C@H]2[C@H](CC(=O)N(CCO)Cc3ccccc3)O[C@@]3(C(=O)N(c4ccccc4)c4ccccc43)[C@@H]2C)cc1"
  group: "met"
- molecule: "CS(=O)(=O)CCOC(=O)C1=CC(CCCO)=CC(C2CC2)N(Cc2sc3ccccc3c2Cl)C=C1C(=O)OCCS(C)(=O)=O (stereo unspecified)"
  group: "met"
- molecule: "CN(C)CCCCNC(=O)[C@H]1C[C@H]2C(=O)N[C@@H](CCCCN(C)C)C(=O)N2[C@H]1c1ccc(O)cc1"
  group: "met"
- molecule: "COC(=O)C(CC#Cc1ccc2c(c1)[C@]1(C(=O)N2)[C@H](C(=O)N2CCN(c3ncccn3)CC2)[C@H]2C(=O)O[C@H](c3ccccc3)[C@H](c3ccccc3)N2[C@@H]1c1ccc(O)cc1)C(=O)OC"
  group: "met"
- molecule: "O=C1C[C@@](C(=O)NCC(F)(F)F)(c2ccc([N+](=O)[O-])cc2)[C@@H](c2ccc(CO)cc2I)N1CC12CC3CC(CC(C3)C1)C2"
  group: "met"
- molecule: "CCOC(=O)C[C@H]1[C@H](OC(=O)Cc2ccc3c(c2)OCO3)[C@@H](NC(=O)CC(C)C)c2cc(OCCCO)ccc2N1C(=O)c1ccc2ccccc2n1"
  group: "met"
- molecule: "COCCCNC(=O)[C@@]1(Cc2ccccc2I)c2ccccc2C(=O)N(Cc2ccccc2C(F)(F)F)[C@H]1c1ccc(CO)cc1"
  group: "not met"
- molecule: "CN1C(=O)C2C=CC(C(O)c3ccc([N+](=O)[O-])cc3)N(Nc3ccccc3)C2C1=O (stereo unspecified)"
  group: "met"
- molecule: "COc1cc(CO)cc(I)c1O[C@H]1C=C(C(=O)NCCO)C[C@@H](N(CCN2CCOCC2)C(=O)C2CCCO2)[C@@H]1O (stereo partly specified)"
  group: "not met"
- molecule: "COCCOC(=O)N1C(=O)[C@@]2(c3cc(C#CCNC(N)=O)ccc31)[C@H](c1ccccc1OCCO)N1[C@H](c3ccccc3)[C@H](c3ccccc3)OC(=O)[C@H]1[C@@H]2C(=O)N1CCCCCCC1"
  group: "met"
- molecule: "COC(=O)[C@@]1(Cc2ccc(F)cc2)[C@H]2c3cc(C(=O)N4CCCC4)n(Cc4ccc(C(F)(F)F)nc4)c3C[C@H]2CN1C(=O)c1ccccc1"
  group: "met"
- molecule: "C=CCOC(=O)[C@@H]1[C@H]2C(=O)O[C@H](c3ccccc3)[C@H](c3ccccc3)N2[C@H](c2ccc(OCCOC(=O)[C@@H]3C[C@@H]4C(=O)N[C@@H](CC(C)C)C(=O)N4[C@@H]3c3ccc(O)cc3)cc2)[C@@]12C(=O)Nc1ccc(I)cc12"
  group: "met"
- molecule: "COc1c(C)cc(-c2cc3c(c(CCc4ccccc4)n2)[Si](C(C)C)(C(C)C)O[C@H]3c2ccccc2)cc1C"
  group: "not met"
- molecule: "O=C1OCCC/C=C\\[C@H]2OC34C=CCN(Cc5ccccc5)C(=O)[C@H]3N(CCO)C(=O)[C@@H]4C12 (stereo partly specified)"
  group: "not met"
- molecule: "C=CCNC(=O)[C@@H]1[C@H]2C(=O)O[C@H](c3ccccc3)[C@H](c3ccccc3)N2[C@H](c2ccc(O)cc2)[C@@]12C(=O)N(C(=O)OCCOC)c1ccc(C#CCC(C(=O)OC)C(=O)OC)cc12"
  group: "met"
- molecule: "CN1C(=O)C2C=CC(C(O)c3ccc(I)cc3)N(N(c3ccccc3)c3ccccc3)C2C1=O (stereo unspecified)"
  group: "not met"
- molecule: "CC(C)[Si](C#Cc1ccccc1)(O[C@H](c1ccccc1)c1cn(Cc2ccccc2)nn1)C(C)C"
  group: "met"
